Hello, the source for this data is paper PMC7363885, in case you need it.

Each entry below lists one item and its recorded kobs value.
experiment: FARMA: permeation of analytes into FAR-loaded liposomes (fluorescence, cuvette or stopped-flow); conditions: monoexponential fit; analyte 40 µM (bulk), FAR-2 ca. 500 µM in the liposome interior; 20% error
# value in s–1; strip the unit string

> print(dat)
   structure.notation  unit.of.measure  numeric.result
1       CCc1ccc(O)cc1              s–1            0.24
2    c1ccc2[nH]ncc2c1              s–1             2.4
3         NCCc1ccccc1              s–1            0.22

Query :: Using the record for `Nc1ccccc1` , report its kobs.
Result :: 7.5
